ASSAY SYSTEM: h-TGR5 (Homo sapiens)
Construct: expressed in transfected cells
Sequence (Q8TDU6 1-330): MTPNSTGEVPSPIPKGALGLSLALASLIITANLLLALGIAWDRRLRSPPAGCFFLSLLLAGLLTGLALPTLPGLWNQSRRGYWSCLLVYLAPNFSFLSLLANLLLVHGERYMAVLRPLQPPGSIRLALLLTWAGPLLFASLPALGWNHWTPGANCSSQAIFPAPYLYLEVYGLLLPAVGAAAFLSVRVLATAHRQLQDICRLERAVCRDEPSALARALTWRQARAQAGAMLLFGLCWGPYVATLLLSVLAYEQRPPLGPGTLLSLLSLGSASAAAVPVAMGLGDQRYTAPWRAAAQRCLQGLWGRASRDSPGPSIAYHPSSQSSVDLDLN
ASSAY DETAILS: TGR5 cAMP Assay using Cisbio cAMP Dynamic2 htrf kit (hTGR5CRE-luc HEK 293 cells)
Format: cell-based
CONDITION INFO: h-TGR5 cAMP EC50, Table 1; read-out: cAMP (EC50)
MEASUREMENT LABEL: EC50

1. COc1cc(C(C)(C)c2cnc(SCc3ccc(C(=O)O)cc3F)n2-c2ccc(F)cc2)ccc1Cl: < 100 nM
2. COc1cc(C(C)(C)c2cnc(SCc3ccc(S(=O)(=O)NC(=O)NCC(C)(C)O)cc3Cl)n2-c2ccc(F)cc2)ccc1Cl: 100 to 1000 nM
3. COc1ccc(C(C)(C)c2cnc(CSc3c(F)cccc3Cl)n2-c2ccc(F)cc2)cc1OC: < 100 nM
4. COc1ccc(C(C)(C)c2cnc(SCc3c(F)cccc3Cl)n2-c2ccc(F)cc2)cc1Cl: < 100 nM
5. CC(C)(c1ccc(Cl)c(Cl)c1)c1cnc(SCc2ccc(F)c(OCC(=O)O)c2)n1-c1ccc(F)cc1: 100 to 1000 nM
6. COc1ccc(C(C)(C)c2cnc(SCc3c(F)cc(C#N)cc3F)n2-c2ccc(F)cc2)cc1Cl: < 100 nM
7. COc1cc(C(C)(C)c2cnc(SCc3c(F)cc(-c4noc(=O)[nH]4)cc3F)n2-c2ccc(F)cc2)ccc1Cl: < 100 nM
8. CC(C)(c1ccc2onc(N)c2c1)c1cnc(SCc2c(F)cc(C(=O)NC(CCCNC(=N)N)C(=O)O)cc2Cl)n1-c1ccc(F)cc1 (centres unmarked): < 100 nM

Reference for the values: patent US8785488B2
